The values you see were collected from patent US20250353894A1.

Molecular target: T1, complement protein C3b (UniProt P01024 749-1663; P01024 23-667)
T1 construct: also called factor C3b
T1 sequence (P01024 749-1663 limits assumed, chain 1 of 2): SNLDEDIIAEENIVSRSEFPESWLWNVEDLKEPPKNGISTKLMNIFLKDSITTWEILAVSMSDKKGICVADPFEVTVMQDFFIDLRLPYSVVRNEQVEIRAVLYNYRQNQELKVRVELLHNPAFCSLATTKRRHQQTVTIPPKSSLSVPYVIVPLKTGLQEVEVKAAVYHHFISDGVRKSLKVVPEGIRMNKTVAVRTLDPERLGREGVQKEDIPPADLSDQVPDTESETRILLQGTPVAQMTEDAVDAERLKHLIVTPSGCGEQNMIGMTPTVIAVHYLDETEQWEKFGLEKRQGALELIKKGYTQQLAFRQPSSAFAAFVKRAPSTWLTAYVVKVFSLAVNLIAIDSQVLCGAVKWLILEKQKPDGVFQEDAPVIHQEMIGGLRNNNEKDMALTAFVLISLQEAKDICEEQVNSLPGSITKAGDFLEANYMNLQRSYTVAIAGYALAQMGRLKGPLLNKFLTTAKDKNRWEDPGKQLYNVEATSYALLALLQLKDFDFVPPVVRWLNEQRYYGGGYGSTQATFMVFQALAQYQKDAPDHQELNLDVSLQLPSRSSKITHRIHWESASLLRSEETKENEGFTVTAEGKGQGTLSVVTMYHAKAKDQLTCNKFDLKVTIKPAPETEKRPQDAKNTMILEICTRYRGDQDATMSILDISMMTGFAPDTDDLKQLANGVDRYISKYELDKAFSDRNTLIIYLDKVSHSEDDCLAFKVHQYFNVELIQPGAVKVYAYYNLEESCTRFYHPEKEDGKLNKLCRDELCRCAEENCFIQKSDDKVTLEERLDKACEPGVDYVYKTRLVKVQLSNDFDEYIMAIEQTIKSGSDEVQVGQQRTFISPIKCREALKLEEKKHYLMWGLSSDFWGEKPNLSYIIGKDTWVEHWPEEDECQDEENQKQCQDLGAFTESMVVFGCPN
T1 sequence (P01024 23-667 limits assumed, chain 2 of 2): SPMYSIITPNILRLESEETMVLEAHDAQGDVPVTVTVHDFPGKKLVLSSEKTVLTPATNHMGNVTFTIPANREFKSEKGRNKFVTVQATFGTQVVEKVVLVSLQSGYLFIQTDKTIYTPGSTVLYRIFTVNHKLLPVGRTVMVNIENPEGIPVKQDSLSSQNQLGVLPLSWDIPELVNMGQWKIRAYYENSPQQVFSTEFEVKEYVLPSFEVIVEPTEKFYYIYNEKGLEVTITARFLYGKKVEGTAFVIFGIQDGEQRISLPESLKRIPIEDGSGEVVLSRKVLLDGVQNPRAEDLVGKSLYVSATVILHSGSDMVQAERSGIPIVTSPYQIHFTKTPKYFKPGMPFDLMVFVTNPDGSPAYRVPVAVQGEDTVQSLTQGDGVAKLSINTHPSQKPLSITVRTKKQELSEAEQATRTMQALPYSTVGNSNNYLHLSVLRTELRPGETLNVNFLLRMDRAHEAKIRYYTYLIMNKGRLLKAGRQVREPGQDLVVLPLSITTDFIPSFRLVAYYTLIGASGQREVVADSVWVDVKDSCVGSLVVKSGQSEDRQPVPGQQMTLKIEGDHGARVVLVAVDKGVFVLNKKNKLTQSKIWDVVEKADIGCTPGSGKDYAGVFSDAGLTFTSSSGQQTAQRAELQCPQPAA
Test: SPR, C3b coupled to chip, 1:1 steady state affinity model
pKd: −log10 of the molar value.

- BINDER: "DAF(1-4)FH(19-20) long linker (other, Fusion protein with an oligo-glycine linker; also called DAF(1-4)FH(19-20)-LL) DCGLPPDVPNAQPALEGRTSFPEDTVITYKCEESFVKIPGEKDSVICLKGSQWSDIEEFCQRSCEVPTRLNSASLKQPYITQNYFPVGTVVEYECRPGYRREPSLSPKLTCLQNLKWSTAVEFCKKKSCPNPGEIRNGQIDVPGGILFGATISFSCNTGYKLFGSTSSFCLISGSSVQWSDPLPECREIYCPAPPQIDNGIIQGERDHYGYRQSVTYACNKGFTMIGEHSIYCTVNNDEGEWSGPPPECRGGGGGGGGGGGGGGGKCGPPPPIDNGDITSFPLSVYAPASSVEYQCQNLYQLEGNKRITCRNGQWSEPPKCLHPCVISREIMENYNIALRWTAKQKLYSRTGESVEFVCKRGYRLSSRSHTLRTTCWDGKLEYPTCA"
  pKd: 6.76
